subject-of-test: T1, human CD112R on GS-J2C/CD112R effector cells (human, UniProt Q6DKI7 1-326)
T1 sequence (looked up): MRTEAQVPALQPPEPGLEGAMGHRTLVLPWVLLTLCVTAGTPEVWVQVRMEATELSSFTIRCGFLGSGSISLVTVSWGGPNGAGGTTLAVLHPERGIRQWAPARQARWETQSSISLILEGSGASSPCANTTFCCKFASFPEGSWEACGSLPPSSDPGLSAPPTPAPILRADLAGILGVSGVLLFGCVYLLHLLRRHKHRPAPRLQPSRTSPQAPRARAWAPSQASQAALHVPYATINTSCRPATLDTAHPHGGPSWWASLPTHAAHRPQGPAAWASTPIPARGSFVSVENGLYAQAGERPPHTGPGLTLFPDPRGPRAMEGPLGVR
protocol-text: cell-based or functional assay
quantity-name: EC50 (Blocking effects of the antibodies, reporter gene method) (µg/mL)
Give bare numbers, in µg/mL.

Study these solved cases before continuing.
binder	reported-result
C13 (antibody, human IgG1, kappa, V domains shown) VH: EVQLQQSGPELVKPGASVKISCKASGYTFTDYFMNWVKQSHGKSLEWIGDINPNNGSPNYNQKFKGRATLTVDKSSSTAYMELRSLTSEDSAVYYCASGYFDVWGTGTTVTVSS VL: DIVMTQSPSSLSVSAGEKVTMSCKSSQSLLNSGTQKNYLAWYQQKPGQPPKLLIYGASTRESGVPDRFTGSGSGTDFTLTISSVQAEDLAVYYCQNDHSYPWTFGGGTKLEIKR	0.019
anti-CD112R antibody CHA.7.518 (antibody, V domains shown, synthesised according to WO/2016/134333; also called Tab-1; Tab 1) VH: QVQLVQSGAEVKKPGASVKVSCKASGYTFTDYNINWVRQAPGQGLEWMGYIYPYIGGSGYAQKFQGRVTMTRDTSTSTVYMELSSLRSEDTAVYYCAREDKTARNAMDYWGQGTLVTVSS VL: DIQMTQSPSSLSASVGDRVTITCRVSENIYSNLAWYQQKPGKAPKLLIYEATNLAEGVPSRFSGSGSGTDFTLTISSLQPEDFATYYCQHFWGTPYTFGQGTKLEIKR	0.065

Lab note: next binder to report on.
I am curious: what EC50 (Blocking effects of the antibodies, reporter gene method) value has been reported for C18 (antibody, human IgG1, kappa, V domains shown) VH: EVQLVESGGGLVKPGGSLKLSCAASGFTFSDYYMYWVRQTPEKRLEWVATISDGGGFIYYPDSVKGRFTISRDNDRNSLYLLMSSLKSEDTAMYFCGREDLWGQGTSVTVSS VL: DIQMTQSPSSLSASLGERVSLTCRASQDIGRSLNWLQQGPDGTVKRLIYATSRLDSGVPTRFSGSRSGSDYSLTISSLESEDFVDYYCLQYASFPYTFGGGTKLEIKR ?
0.034

Origin of the recorded values: patent EP4644419A1
